Tested on: 616215-338-R-J1-PDC complex spheroids, viability % test/control
Assay: Anticancer human tumor 616215-338-R-J1-PDC patient-derived colon adenocarcinoma cell line growth inhibition [CLK]
Details: second compound 0.1 µM; first compound 0.1 µM; active compounds read low
Quick reference for viability, T/C among some molecules
Answer in %, number only, no unit symbol.

Example molecules with recorded viability, T/C:
>  <molecule>
CC(Nc1ccc2c(c1)OCCn1cc(N3C(=O)OCC3C(F)F)nc1-2)C(N)=O (stereo unspecified) + CNC(=O)c1ccc(Nc2nc(OC3CCCC3)c3c(-c4ccc5nc(C)oc5c4)c[nH]c3n2)c(OC)c1

>  <viability, T/C / %>
65.9

$$$$
>  <molecule>
Nc1ccn(C2OC(CO)C(O)C2(F)F)c(=O)n1 (stereo unspecified) + CNC(=O)c1ccc(Nc2nc(OC3CCCC3)c3c(-c4ccc5nc(C)oc5c4)c[nH]c3n2)c(OC)c1

>  <viability, T/C / %>
18.4

$$$$
>  <molecule>
COc1ccc([C@@H](O)c2cc(-c3ncnc4cc(N5CCOCC5)ccc34)c(F)cc2Cl)nn1 + CNC(=O)c1ccc(Nc2nc(OC3CCCC3)c3c(-c4ccc5nc(C)oc5c4)c[nH]c3n2)c(OC)c1

>  <viability, T/C / %>
45.4

$$$$
>  <molecule>
O=c1[nH]cc(F)c(=O)[nH]1 + CN1CCN(c2cc(C(=O)Nc3cc4cc(-c5cnn(C)c5)ccc4cn3)ccn2)CC1

>  <viability, T/C / %>
109

$$$$

Prompt: Would you kindly share the measured viability, T/C for COc1c(OCCCN2CCOCC2)ccc2c3n(c(=NC(=O)c4cnc(N)nc4)nc12)CCN3 + CN1CCN(c2cc(C(=O)Nc3cc4cc(-c5cnn(C)c5)ccc4cn3)ccn2)CC1 ?
Response: 29.1

Prompt: # iterate: O=C(c1cc(Cc2n[nH]c(=O)c3ccccc23)ccc1F)N1CCN(C(=O)C2CC2)CC1 + CN1CCN(c2cc(C(=O)Nc3cc4cc(-c5cnn(C)c5)ccc4cn3)ccn2)CC1
Response: 110

* * *

System: 616215-338-R-J1-PDC complex spheroids, viability % test/control
Experiment: Anticancer human tumor 616215-338-R-J1-PDC cell line growth inhibition [CLK]; active = viability on the fitted dose curve at most 10% of control; inactive = the rest;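 note: spheroids exposed to agents for 7 days; 100% = DMSO vehicle wells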
Conditions: second compound 3.16 µM; first compound 0.0316 µM
Your reply should match one of these outcome classes. active, inactive

>  <molecule>
COc1cccc2c1C(=O)c1c(O)c3c(c(O)c1C2=O)CC(O)(C(=O)CO)CC3OC1CC(N)C(O)C(C)O1 (stereo not drawn) + CN1CCN(c2cc(C(=O)Nc3cc4cc(-c5cnn(C)c5)ccc4cn3)ccn2)CC1

>  <discrete_label>
active

$$$$
>  <molecule>
COc1ccc([C@@H](O)c2cc(-c3ncnc4cc(N5CCOCC5)ccc34)c(F)cc2Cl)nn1 + CNC(=O)c1ccc(Nc2nc(OC3CCCC3)c3c(-c4ccc5nc(C)oc5c4)c[nH]c3n2)c(OC)c1

>  <discrete_label>
inactive

$$$$

As a next step, examine the molecule that follows.
Prompt: I'd appreciate the recorded outcome for O=C(c1cc(Cc2n[nH]c(=O)c3ccccc23)ccc1F)N1CCN(C(=O)C2CC2)CC1 + CN1CCN(c2cc(C(=O)Nc3cc4cc(-c5cnn(C)c5)ccc4cn3)ccn2)CC1 from this test.
Response: active

* * *

System: 616215-338-R-J1-PDC complex spheroids, viability % test/control
Assay: Anticancer human tumor 616215-338-R-J1-PDC cell line growth inhibition [CLK];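 note: spheroids exposed to agents for 7 days; 100% = DMSO vehicle wells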
Details: second compound 1 µM; first compound 0.316 µM; active compounds read low
metric_name: viability, T/C

Example compounds with recorded viability, T/C:
>  <compound>
COc1cccc2c1C(=O)c1c(O)c3c(c(O)c1C2=O)CC(O)(C(=O)CO)CC3OC1CC(N)C(O)C(C)O1 (stereo not given) + CN1CCN(c2cc(C(=O)Nc3cc4cc(-c5cnn(C)c5)ccc4cn3)ccn2)CC1

>  <viability, T/C>
0.16%

$$$$
>  <compound>
CC(CO)NC(=O)c1cc(-c2ccc(Cl)cc2)nn(-c2cnn(C)c2)c1=O (stereo not given) + CN1CCN(c2cc(C(=O)Nc3cc4cc(-c5cnn(C)c5)ccc4cn3)ccn2)CC1

>  <viability, T/C>
0.23%

$$$$
>  <compound>
CC1(C)CCC(CN2CCN(c3ccc(C(=O)NS(=O)(=O)c4ccc(NCC5CCOCC5)c([N+](=O)[O-])c4)c(Oc4cnc5[nH]ccc5c4)c3)CC2)=C(c2ccc(Cl)cc2)C1 + CN1CCN(c2cc(C(=O)Nc3cc4cc(-c5cnn(C)c5)ccc4cn3)ccn2)CC1

>  <viability, T/C>
0.2%

$$$$
>  <compound>
CCCS(=O)(=O)Nc1ccc(F)c(C(=O)c2c[nH]c3ncc(-c4ccc(Cl)cc4)cc23)c1F + CN1CCN(c2cc(C(=O)Nc3cc4cc(-c5cnn(C)c5)ccc4cn3)ccn2)CC1

>  <viability, T/C>
0.17%

$$$$

API: the following record is the query input.
Prompt: Would you kindly share the measured viability, T/C for CC1COCCN1c1cc(C2(S(C)(=N)=O)CC2)nc(-c2ccnc3[nH]ccc23)n1 (stereo not given) + CN1CCN(c2cc(C(=O)Nc3cc4cc(-c5cnn(C)c5)ccc4cn3)ccn2)CC1 ?
Response: 2.21%

* * *

System: 616215-338-R-J1-PDC complex spheroids, viability % test/control
Assay: Anticancer human tumor 616215-338-R-J1-PDC cell line growth inhibition [CLK]; active = viability on the fitted dose curve at most 10% of control; inactive = the rest;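 note: spheroids exposed to agents for 7 days; 100% = DMSO vehicle wells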
Settings: second compound 1 µM; first compound 0.0316 µM
Source text: A high-throughput screen of multi-cell type tumor spheroids was designed to identify active combinations of […] and targeted small molecules. Complex spheroids include a stromal component modeled by human endothelial cells (HUVEC) and fibroblasts modeled by human mesenchymal stem cells (MSCs). […] Compounds. […] If the clinical Cmax for an agent had not been determined, the highest concentration tested was 10 microM. […]
Your reply should match one of these outcome classes. active, inactive

>  <compound>
CCCS(=O)(=O)Nc1ccc(F)c(C(=O)c2c[nH]c3ncc(-c4ccc(Cl)cc4)cc23)c1F + CNC(=O)c1ccc(Nc2nc(OC3CCCC3)c3c(-c4ccc5nc(C)oc5c4)c[nH]c3n2)c(OC)c1

>  <target_under_test>
616215-338-R-J1-PDC complex spheroids, viability % test/control

>  <discrete_label>
inactive

$$$$
>  <compound>
Nc1ccccc1NC(=O)c1ccc(CNC(=O)OCc2cccnc2)cc1 + CN1CCN(c2cc(C(=O)Nc3cc4cc(-c5cnn(C)c5)ccc4cn3)ccn2)CC1

>  <target_under_test>
616215-338-R-J1-PDC complex spheroids, viability % test/control

>  <discrete_label>
active

$$$$
>  <compound>
Nc1ccn(C2OC(CO)C(O)C2(F)F)c(=O)n1 (stereo unspecified) + CNC(=O)c1ccc(Nc2nc(OC3CCCC3)c3c(-c4ccc5nc(C)oc5c4)c[nH]c3n2)c(OC)c1

>  <target_under_test>
616215-338-R-J1-PDC complex spheroids, viability % test/control

>  <discrete_label>
inactive

$$$$
>  <compound>
CC(=O)O[C@H]1C(=O)[C@@]2(C)[C@H]([C@H](OC(=O)c3ccccc3)[C@]3(O)C[C@H](OC(=O)[C@H](O)[C@@H](NC(=O)c4ccccc4)c4ccccc4)C(C)=C1C3(C)C)[C@]1(OC(C)=O)CO[C@@H]1C[C@@H]2O + CN1CCN(c2cc(C(=O)Nc3cc4cc(-c5cnn(C)c5)ccc4cn3)ccn2)CC1

>  <target_under_test>
616215-338-R-J1-PDC complex spheroids, viability % test/control

>  <discrete_label>
active

$$$$
>  <compound>
O=c1[nH]cc(F)c(=O)[nH]1 + CNC(=O)c1ccc(Nc2nc(OC3CCCC3)c3c(-c4ccc5nc(C)oc5c4)c[nH]c3n2)c(OC)c1

>  <target_under_test>
616215-338-R-J1-PDC complex spheroids, viability % test/control

>  <discrete_label>
inactive

$$$$
>  <compound>
CCN1CCN(Cc2ccc(Nc3ncc(F)c(-c4cc(F)c5nc(C)n(C(C)C)c5c4)n3)nc2)CC1 + CN1CCN(c2cc(C(=O)Nc3cc4cc(-c5cnn(C)c5)ccc4cn3)ccn2)CC1

>  <target_under_test>
616215-338-R-J1-PDC complex spheroids, viability % test/control

>  <discrete_label>
active

$$$$

Prompt: I'd appreciate the recorded outcome for C#Cc1c(F)ccc2cc(O)cc(-c3ncc4c(N5CC6CCC(C5)N6)nc(OCC56CCCN5CC(F)C6)nc4c3F)c12 (stereo unspecified) + CNC(=O)c1ccc(Nc2nc(OC3CCCC3)c3c(-c4ccc5nc(C)oc5c4)c[nH]c3n2)c(OC)c1 from this test.
Response: inactive

Prompt: # iterate: Nc1ccccc1NC(=O)c1ccc(CNC(=O)OCc2cccnc2)cc1 + CNC(=O)c1ccc(Nc2nc(OC3CCCC3)c3c(-c4ccc5nc(C)oc5c4)c[nH]c3n2)c(OC)c1
Response: inactive

Prompt: # iterate: COc1c(OCCCN2CCOCC2)ccc2c3n(c(=NC(=O)c4cnc(N)nc4)nc12)CCN3 + CN1CCN(c2cc(C(=O)Nc3cc4cc(-c5cnn(C)c5)ccc4cn3)ccn2)CC1
Response: active

Prompt: # iterate: CC(Nc1ccc2c(c1)OCCn1cc(N3C(=O)OCC3C(F)F)nc1-2)C(N)=O (stereo unspecified) + CNC(=O)c1ccc(Nc2nc(OC3CCCC3)c3c(-c4ccc5nc(C)oc5c4)c[nH]c3n2)c(OC)c1
Response: inactive

Prompt: # iterate: CC(Nc1ccc2c(c1)OCCn1cc(N3C(=O)OCC3C(F)F)nc1-2)C(N)=O (stereo unspecified) + CN1CCN(c2cc(C(=O)Nc3cc4cc(-c5cnn(C)c5)ccc4cn3)ccn2)CC1
Response: active
